These measurements were taken from patent EP4562003B1.

Collected pIC50 values appear next to each entry.
Biological target: human GPR17 short isoform (Homo sapiens)
Sequence (Q13304 29-367): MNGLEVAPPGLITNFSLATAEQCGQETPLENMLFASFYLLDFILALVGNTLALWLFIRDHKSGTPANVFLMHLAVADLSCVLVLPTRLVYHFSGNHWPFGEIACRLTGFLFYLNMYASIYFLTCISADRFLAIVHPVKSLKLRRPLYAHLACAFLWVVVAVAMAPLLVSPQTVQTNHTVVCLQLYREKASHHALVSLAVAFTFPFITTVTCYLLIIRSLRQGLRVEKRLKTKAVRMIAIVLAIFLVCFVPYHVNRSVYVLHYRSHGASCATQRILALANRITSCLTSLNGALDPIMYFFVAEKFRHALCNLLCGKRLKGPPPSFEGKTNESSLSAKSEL
Experiment: GPR17 cAMP assay (TR-FRET cAMP quantification, antagonist mode)
Conditions: CHO-K1 cells stably expressing human GPR17 short isoform; EC80 of agonist MDL29,951; forskolin 15µM; IBMX 0.5mM; 30 minutes at room temperature; read-out: hGPR17 cAMP IC50
A value of pIC50 is the negative decimal logarithm of a concentration given in moles per litre.

A selection of reference data follows.
COc1nc(NS(=O)(=O)c2c[nH]c3c(-c4ncccn4)c(C)ccc23)nc(OC)c1OC(F)F [Example 55] | 6.80
COc1nc(NS(=O)(=O)c2c[nH]c3c(-c4cnccn4)c(Cl)ccc23)nc(OC)c1CC(F)F [Example 15] | 7.57
COc1nc(NS(=O)(=O)c2c[nH]c3c(-c4ccc(C)nn4)c(Cl)ccc23)nc(OC)c1OCC(F)F [Example 63] | 7.35
COc1nc(NS(=O)(=O)c2c[nH]c3c(-c4cnn(C)n4)c(Cl)ccc23)nc(OC)c1OCCF [Example 109] | 7.44

Lab note: next compound to report on.
Exercise: Given the compound COc1nc(NS(=O)(=O)c2c[nH]c3c(-c4ccccc4)c(Cl)ccc23)nc(OC)c1CC(F)F [Example 71] , write its reported pIC50.
Solution: 7.00
